A collection of molecules and their measured z-score
Assay: DUSP6 inhibitors restoring Erk phosphorylation by chemical complementation, primary imaging in DUSP6-transfected HeLa (AID 609)
Conditions: HeLa MKP-3 transfected, phospho-Erk imaging KS statistic; measured here: cell density z-score; at 10 µM; cells stimulated with TPA for 15 min
No unit in the answer, please; the number alone is enough.

(Q) If you can, please state the reported z-score value of O=c1cc(N2CCCCC2)nc2n1CCCS2 .
(A) 0.266

(Q) What about this molecule? Cc1nnc(SCC(=O)N2CCOCC2)c2ccccc12
(A) 0.531

(Q) Record: CC(C)c1ccc(O)c(N)c1
(A) 1.39

(Q) // same read-out, input: COc1cccc(C2C(C(=O)c3sc(C)nc3C)=C(O)C(=O)N2CCN2CCOCC2)c1OC (stereo not given)
(A) -0.517

(Q) Cool, now CN1C(=O)C2(c3ccccc31)C1CCCC=C1C(C#N)=C(N)C2(C#N)C#N (stereo not given)
(A) -0.865

(Q) Item: CCOC(=O)c1cnn2c1[nH]c(=O)c1ccccc12
(A) 0.0185

(Q) Same thing, different molecule: O=S(=O)(c1cccc2nsnc12)N1CCN(C/C=C/c2ccccc2)CC1
(A) -0.555

(Q) Record: Cc1cc(=O)oc2c(CN3CCC(C)CC3)c(O)c(Cl)cc12
(A) 0.311
